test system: NCI-60 cell lines; experiment: NCI-60 cell line panel screening of NL-101 (NSC#751447); format: cell-based, human; settings: Homo sapiens; on average; read-out: average cellular IC50 in the 60 cancer cell lines
pIC50: −log10 of the molar value.
measurement label: pIC50

Recall the recorded pIC50 for Cn1c(CCCCCCC(=O)NO)nc2cc(N(CCCl)CCCl)ccc21 [NL-101] with NCI-60 cell lines and state it. ~5.70
